These entries and their values trace back to ChEMBL document CHEMBL5365437.

Study System: AMP-activated protein kinase (AMPK) alpha-1/beta-1/gamma-1 (Homo sapiens) (UniProt P54619+Q9Y478+Q13131)
Sequence (P54619 whole entry): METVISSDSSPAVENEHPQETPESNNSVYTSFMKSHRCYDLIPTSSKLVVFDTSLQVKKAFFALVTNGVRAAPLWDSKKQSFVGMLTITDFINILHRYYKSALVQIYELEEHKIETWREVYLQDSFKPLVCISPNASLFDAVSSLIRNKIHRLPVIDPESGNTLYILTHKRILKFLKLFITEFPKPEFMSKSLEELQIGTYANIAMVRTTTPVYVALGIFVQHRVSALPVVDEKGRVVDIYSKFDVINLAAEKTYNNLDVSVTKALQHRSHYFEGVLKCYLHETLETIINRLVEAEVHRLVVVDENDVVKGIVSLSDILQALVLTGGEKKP
Sequence (Q13131 whole entry partner): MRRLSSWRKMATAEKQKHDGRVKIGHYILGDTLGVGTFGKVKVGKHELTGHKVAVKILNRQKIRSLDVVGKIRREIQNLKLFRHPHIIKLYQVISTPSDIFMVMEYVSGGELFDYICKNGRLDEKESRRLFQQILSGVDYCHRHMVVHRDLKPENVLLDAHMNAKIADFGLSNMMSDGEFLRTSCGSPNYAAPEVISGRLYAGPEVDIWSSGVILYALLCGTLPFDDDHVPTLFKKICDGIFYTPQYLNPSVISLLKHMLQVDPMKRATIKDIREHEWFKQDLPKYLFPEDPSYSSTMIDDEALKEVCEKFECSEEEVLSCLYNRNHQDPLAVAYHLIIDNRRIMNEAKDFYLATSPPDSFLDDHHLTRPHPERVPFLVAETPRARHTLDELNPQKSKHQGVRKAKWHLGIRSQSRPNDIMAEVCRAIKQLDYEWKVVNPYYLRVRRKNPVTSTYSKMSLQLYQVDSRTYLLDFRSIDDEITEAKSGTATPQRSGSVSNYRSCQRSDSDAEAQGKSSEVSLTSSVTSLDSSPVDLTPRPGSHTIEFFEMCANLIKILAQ
Sequence (Q9Y478 2-270 partner limits assumed): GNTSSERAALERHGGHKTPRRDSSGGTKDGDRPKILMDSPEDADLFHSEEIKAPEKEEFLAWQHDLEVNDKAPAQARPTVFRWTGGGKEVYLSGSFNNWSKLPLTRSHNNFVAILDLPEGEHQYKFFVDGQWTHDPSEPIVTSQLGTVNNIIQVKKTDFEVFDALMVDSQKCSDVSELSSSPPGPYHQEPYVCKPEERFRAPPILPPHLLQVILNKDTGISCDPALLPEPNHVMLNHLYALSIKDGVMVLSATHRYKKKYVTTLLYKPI
Experiment Description: Activation of recombinant AMPK alpha1/beta1/gamma1 (unknown origin) at 1 uM relative to control
Assay type: protein-complex assay
Measurement Setup: filed as activator
# reported Activity; entries follow
Report the figure in % without appending any unit label.

Below: 3 compounds and their reported Activity.
{"Compound": "CCN(CC)/C(N)=N/C(=N/S(=O)(=O)c1ccc(Cl)cc1)N1CC(c2ccccc2)C(c2ccc(Cl)cc2)=N1 (centres undefined)", "Quantity": "Activity", "Units Text": "%", "Observed Result": 113}
{"Compound": "CC(=O)N/C(N)=N/C(=N/S(=O)(=O)c1ccc(C)cc1)N1CC(c2ccccc2)C(c2ccc(Cl)cc2)=N1 (centres undefined)", "Quantity": "Activity", "Units Text": "%", "Observed Result": 96}
{"Compound": "CC(=O)N/C(N)=N/C(=N/S(=O)(=O)c1ccc(C#N)cc1)N1CC(c2ccccc2)C(c2ccc(Cl)cc2)=N1 (centres undefined)", "Quantity": "Activity", "Units Text": "%", "Observed Result": 91}

Please fill in: Activity reported for CC(=O)N/C(N)=N/C(=N/S(=O)(=O)N1CCC(C(F)(F)F)CC1)N1CC(c2ccccc2)C(c2ccc(Cl)cc2)=N1 (centres undefined) = 116

Please fill in: Activity reported for CN(C)/C(N)=N/C(=N/S(=O)(=O)c1ccc(Cl)cc1)N1CC(c2ccccc2)C(c2ccc(Cl)cc2)=N1 (centres undefined) = 124

Please fill in: Activity reported for COc1ccc(S(=O)(=O)/N=C(/N=C(\N)NC(=O)c2ccccc2)N2CC(c3ccccc3)C(c3ccc(Cl)cc3)=N2)cc1 (centres undefined) = 98

Please fill in: Activity reported for Cc1c(C(=O)NN2CCCCC2)nn(-c2ccc(Cl)cc2Cl)c1-c1ccc(Cl)cc1 [RIMONABANT] = 101

Please fill in: Activity reported for CC(=O)N/C(N)=N/C(=N/S(=O)(=O)N1CCCCC1)N1CC(c2ccccc2)C(c2ccc(Cl)cc2)=N1 (centres undefined) = 152

Please fill in: Activity reported for N/C(=N\C(=N\S(=O)(=O)c1ccc2ccccc2c1)N1CC(c2ccccc2)C(c2ccc(Cl)cc2)=N1)NC(=O)c1ccccc1 (centres undefined) = 90

Please fill in: Activity reported for CC(=O)N/C(N)=N/C(=N/S(=O)(=O)c1ccc(F)cc1)N1CC(c2ccccc2)C(c2ccc(Cl)cc2)=N1 (centres undefined) = 95

Please fill in: Activity reported for N/C(=N\C(=N\S(=O)(=O)c1ccc(Cl)cc1)N1CC(c2ccccc2)C(c2ccc(Cl)cc2)=N1)NC(=O)c1ccccc1 (centres undefined) = 100

Please fill in: Activity reported for CC(C)(C)N/C(N)=N/C(=N/S(=O)(=O)c1ccc(Cl)cc1)N1CC(c2ccccc2)C(c2ccc(Cl)cc2)=N1 (centres undefined) = 126

Please fill in: Activity reported for N/C(=N\C(=N\S(=O)(=O)c1ccc(Cl)cc1)N1CC(c2ccccc2)C(c2ccc(Cl)cc2)=N1)n1cccn1 (centres undefined) = 92

Please fill in: Activity reported for CC(=O)N/C(N)=N/C(=N/S(=O)(=O)c1ccccc1)N1CC(c2ccccc2)C(c2ccc(Cl)cc2)=N1 (centres undefined) = 93
